pKi: −log10 of the molar value.
pKi, Bcl-2 (Homo sapiens, UniProt P10415): measured values
ENDPOINT NAME: pKi

COMPOUND	ENDPOINT NAME	OBSERVED MEASUREMENT
C[C@H](O)[C@@H]1[C@H](CO)ON(Cc2cccc(C#C[C@]3(O)CC[C@H]4[C@@H]5CCc6cc(O)ccc6[C@H]5CC[C@@]43C)c2)[C@@H]1C(=O)NCCCN(C)c1ccccc1	pKi	< 4.30
CC(C)CC(CN(C)C)N(Cc1cccc(CN2OC(CO)C(C(C)O)C2C(=O)NC2CC3CC(C2C)C3(C)C)c1)Cc1ccc(F)cc1O (centres unmarked)	pKi	> 6.10
COc1cccc(CN(Cc2cccc(CN3OC(CO)C(C(C)O)C3C(=O)NC3CC4CC(C3C)C4(C)C)c2)C(CC(C)C)CN(C)C)c1OC (centres unmarked)	pKi	> 6.10
C[C@@H]1[C@@H](NC(=O)[C@@H]2[C@H]([C@H](C)O)[C@H](CO)ON2Cc2cccc(-c3cccc(C(=O)NCCN4CCOCC4)c3)c2)C[C@H]2C[C@@H]1C2(C)C	pKi	> 6.10
C[C@@H]1[C@@H](NC(=O)[C@@H]2C([C@H](C)O)[C@H](CO)ON2Cc2cccc(C#CC(C)(O)c3ccccc3)c2)C[C@H]2C[C@@H]1C2(C)C (some centres unmarked)	pKi	5.22 to 6.10
